# Target under test: CYP3A4 (Homo sapiens)
# Sequence (P08684 whole entry): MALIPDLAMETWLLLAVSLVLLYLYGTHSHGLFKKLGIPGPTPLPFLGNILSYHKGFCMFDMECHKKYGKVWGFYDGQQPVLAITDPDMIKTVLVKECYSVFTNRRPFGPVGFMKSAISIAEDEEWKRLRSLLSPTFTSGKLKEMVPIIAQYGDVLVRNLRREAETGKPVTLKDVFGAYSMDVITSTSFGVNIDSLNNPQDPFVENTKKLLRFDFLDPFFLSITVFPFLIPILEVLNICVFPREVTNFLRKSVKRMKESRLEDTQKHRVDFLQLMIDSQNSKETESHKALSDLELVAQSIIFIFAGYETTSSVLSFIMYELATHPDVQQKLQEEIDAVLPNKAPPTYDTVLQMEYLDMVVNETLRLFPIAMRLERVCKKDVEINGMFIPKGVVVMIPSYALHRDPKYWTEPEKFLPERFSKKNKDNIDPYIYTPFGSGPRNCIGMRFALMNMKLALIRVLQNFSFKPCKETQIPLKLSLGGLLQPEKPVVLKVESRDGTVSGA
# Protocol summary: Inhibition of human microsomal CYP3A4 at 10 uM after 10 mins by LC-MS/MS analysis relative to control
# Assay type: ADME
# Assay conditions: microsomes
Response key: Criterion met means inhibition at 10 min, 10 µM >= 30%; Criterion not met means inhibition at 10 min, 10 µM < 30%.

## Input Check if inhibition at 10 min, 10 µM >= 30% (inclusive). Item: COc1ccc2c(c1)C(NCCOc1cc(F)ccc1F)CCS2(=O)=O (stereo unspecified)
## Output Criterion not met

## Input Has NC(=O)c1ccc2c(c1)C(NCCOc1cc(F)ccc1F)CCS2(=O)=O (stereo unspecified) a recorded inhibition at 10 min, 10 µM greater than or equal to 30%?
## Output Criterion not met

## Input Given COc1cccc2c1C(NCCOc1cc(F)ccc1F)CCS2(=O)=O (stereo unspecified) , state whether its inhibition at 10 min, 10 µM is at least 30%.
## Output Criterion not met

## Input Record CNc1ccc2c(c1)[C@H](NCCOc1cc(F)ccc1F)CCS2(=O)=O ; criterion: inhibition at 10 min, 10 µM no lower than 30%. Met?
## Output Criterion not met

## Input Is inhibition at 10 min, 10 µM at least 30%? Consider O=S1(=O)CCC(NCCOc2cc(F)ccc2F)c2cc(F)ccc21 (stereo unspecified)
## Output Criterion not met

## Input Test whether the molecule COc1ccc2c(c1)S(=O)(=O)CCC2NCCOc1cc(F)ccc1F (stereo unspecified) records inhibition at 10 min, 10 µM of 30% or higher.
## Output Criterion met
